Assay: Inhibition of Mycobacterium tuberculosis leucyl-tRNA synthetase assessed as reduction of [14C]-L-leucine ligation to tRNA incubated for 5 mins by scintillation counting method in presence of ATP
I'd appreciate it if you could supply IC50 values for the items below.
Answers are plain numbers, in µM.

> print(dat)
                            chemical.string  measured.property  experimental.result
1  CC(/C=C1\SC(=S)N(CCC(=O)Nc2ccc(O)cc2)C1=O)=C\c1ccccc1               IC50                 22.2

Please look at the following compound next.
Problem: Tell me the measured IC50 of COc1cc(/C=N\Nc2nc(-c3ccc([N+](=O)[O-])cc3)cs2)cc([N+](=O)[O-])c1O , please.
Solution: 8

---

Experiment: Inhibition of Mycobacterium tuberculosis leucyl-tRNA synthetase assessed as reduction of [14C]-L-leucine ligation to tRNA incubated for 5 mins by scintillation counting method in presence of ATP
Record form. Attribute: IC50. Fill in for each entry.

Lab note: each compound below needs its IC50 filled in.
1. COc1cc(/C=N/Nc2nc(-c3cccc([N+](=O)[O-])c3)cs2)ccc1O
2. COc1cc(/C=N/Nc2nc(C)cs2)cc(Br)c1O
3. Oc1ccc(/C=N/Nc2nc(-c3ccccc3)c(-c3ccccc3)s2)cc1
4. Oc1ccc(Br)cc1/C=N/Nc1nccs1
5. O=[N+]([O-])c1ccc(-c2csc(N/N=C/c3cc(Br)c(O)c(Br)c3)n2)cc1
6. COc1cc(/C=N/Nc2nc(-c3ccccc3)cs2)cc(OC)c1O
7. COc1cc(/C=N/Nc2nc(-c3ccc(Br)cc3)cs2)cc(OC)c1OC
8. CCOC(=O)c1sc(N/N=C/c2ccc(O)c(OC)c2)nc1C

Solution:
1: 15.9 µM; 2: > 20 µM; 3: > 20 µM; 4: > 20 µM; 5: 2.27 µM; 6: > 20 µM; 7: > 20 µM; 8: 11.4 µM

---

Molecular target: Leucine--tRNA ligase, cytoplasmic (Homo sapiens, UniProt Q9P2J5)
Sequence (Q9P2J5 whole entry): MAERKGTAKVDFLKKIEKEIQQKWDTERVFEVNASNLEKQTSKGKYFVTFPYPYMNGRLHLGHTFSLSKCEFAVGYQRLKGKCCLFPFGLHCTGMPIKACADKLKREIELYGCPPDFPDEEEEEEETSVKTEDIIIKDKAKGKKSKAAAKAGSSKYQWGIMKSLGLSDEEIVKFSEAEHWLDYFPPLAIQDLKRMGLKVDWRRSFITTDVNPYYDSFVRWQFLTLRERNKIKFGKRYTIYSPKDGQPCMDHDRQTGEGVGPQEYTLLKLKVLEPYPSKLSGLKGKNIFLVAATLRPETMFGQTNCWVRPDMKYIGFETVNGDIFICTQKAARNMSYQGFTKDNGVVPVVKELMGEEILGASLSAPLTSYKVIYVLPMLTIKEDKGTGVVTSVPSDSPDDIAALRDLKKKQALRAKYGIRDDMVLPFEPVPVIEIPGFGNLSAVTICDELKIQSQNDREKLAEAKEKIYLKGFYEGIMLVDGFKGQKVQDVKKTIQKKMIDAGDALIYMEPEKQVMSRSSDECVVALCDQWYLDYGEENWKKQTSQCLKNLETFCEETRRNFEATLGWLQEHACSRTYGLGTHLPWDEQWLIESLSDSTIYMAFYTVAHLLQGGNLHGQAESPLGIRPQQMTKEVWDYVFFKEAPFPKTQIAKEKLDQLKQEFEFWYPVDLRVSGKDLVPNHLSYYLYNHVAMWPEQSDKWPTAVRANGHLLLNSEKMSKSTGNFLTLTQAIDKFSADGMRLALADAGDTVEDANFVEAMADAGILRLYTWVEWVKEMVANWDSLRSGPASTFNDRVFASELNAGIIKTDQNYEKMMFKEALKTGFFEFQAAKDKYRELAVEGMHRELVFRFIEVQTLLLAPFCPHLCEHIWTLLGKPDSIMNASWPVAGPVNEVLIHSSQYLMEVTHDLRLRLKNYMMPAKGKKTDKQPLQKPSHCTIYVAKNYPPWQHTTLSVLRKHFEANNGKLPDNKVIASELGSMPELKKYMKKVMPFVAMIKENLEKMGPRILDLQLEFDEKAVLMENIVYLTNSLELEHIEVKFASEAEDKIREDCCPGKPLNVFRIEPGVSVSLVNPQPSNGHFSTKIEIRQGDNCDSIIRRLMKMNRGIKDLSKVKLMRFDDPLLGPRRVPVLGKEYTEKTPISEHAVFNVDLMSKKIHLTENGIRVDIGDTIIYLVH
MEASURED PROPERTY: IC50 (µM)
One number for each entry, in µM.

> print(dat)
                            chemical.string                          target.or.system  experimental.result
1  COc1cc(/C=N\Nc2nc(-c3ccc(Br)cc3)cs2)cc([N+](=O)[O-])c1O  Leucine--tRNA ligase, cytoplasmic (Homo sapiens, UniProt Q9P2J5)                  116
2  COc1cc(/C=N/Nc2nc(-c3ccc(Cl)cc3)cs2)cc(Br)c1O  Leucine--tRNA ligase, cytoplasmic (Homo sapiens, UniProt Q9P2J5)                 27.6
3  COc1cc(/C=N\Nc2nc(-c3ccc([N+](=O)[O-])cc3)cs2)cc([N+](=O)[O-])c1O  Leucine--tRNA ligase, cytoplasmic (Homo sapiens, UniProt Q9P2J5)                 45.8

For the 2 molecules below, give their IC50 values.
1. CCOC(=O)c1sc(N/N=C/c2ccc(O)c(OC)c2)nc1C
2. O=[N+]([O-])c1ccc(-c2csc(N/N=C/c3cc(Br)c(O)c(Br)c3)n2)cc1

Solution:
1. 116
2. 18.7
